- System: A549 cells
- assay_name: Cell-based assay, anti-proliferative activity (Cell Counting Kit-8, 72 hours)
- Design: species or system human
- experimental_setup: Homo sapiens, A549, 72 h, read-out: IC50 (μM) (A549)
Counter-ions that a name gives are not always drawn.
Please use MET for IC50 under 0.3 µM and NOT MET for everything else, ties included.

Reference set (10 entries):
{"compound": "N[C@@H]1CCCN(c2ccc(Nc3c(C(=O)C4CC4)cnc4ccc(-c5cc(F)c(O)c(Cl)c5)nc34)cn2)C1", "assayed_system": "A549 cells", "group_label": "MET"}
{"compound": "CC(=O)c1cnc2ccc(-c3cc(Cl)c(O)c(Cl)c3)nc2c1Nc1cccc(CCN2CCCC2)c1 [Example 19, dihydrochloride]", "assayed_system": "A549 cells", "group_label": "MET"}
{"compound": "CC(=O)c1cnc2ccc(-c3cc(Cl)c(O)c(Cl)c3)nc2c1Nc1ccc(OCCN(C)C)nc1 [Example 21, dihydrochloride]", "assayed_system": "A549 cells", "group_label": "MET"}
{"compound": "CC(=O)c1cnc2ccc(-c3c(C)n[nH]c3C)nc2c1N[C@H]1CC[C@H](CN(C)C)CC1 [Example 58, trihydrochloride]", "assayed_system": "A549 cells", "group_label": "NOT MET"}
{"compound": "CC(=O)c1cnc2ccc(-c3ccc(C#N)nc3)nc2c1N[C@H]1CC[C@H](CN(C)C)CC1 [Example 87, dihydrochloride]", "assayed_system": "A549 cells", "group_label": "NOT MET"}
{"compound": "CC(=O)c1cnc2ccc(-c3cc(F)c(O)c(Cl)c3)nc2c1NC[C@H]1CC[C@H](N(C)C)CC1 [Example 90, dihydrochloride]", "assayed_system": "A549 cells", "group_label": "MET"}
{"compound": "COc1cc(-c2ccc3ncc(S(C)(=O)=O)c(Nc4ccc(OCCN(C)C)nc4)c3n2)cc(Cl)c1O [Example 26, dihydrochloride]", "assayed_system": "A549 cells", "group_label": "NOT MET"}
{"compound": "CC(=O)c1cnc2ccc(-c3cc(Cl)c(O)c(Cl)c3)nc2c1N[C@H]1CC[C@H](CN(C)C)CC1 [Example 6, dihydrochloride]", "assayed_system": "A549 cells", "group_label": "MET"}
{"compound": "CC(=O)c1cnc2ccc(-c3cc(C)c(O)c(C)c3)nc2c1N[C@H]1CC[C@H](CN(C)C)CC1 [Example 59, dihydrochloride]", "assayed_system": "A549 cells", "group_label": "MET"}
{"compound": "CC(=O)c1cnc2ccc(-c3cc(F)c(O)c(Cl)c3)nc2c1N[C@H]1CC[C@H](NC(=O)[C@@H]2CCCN2)CC1 [Example 76, dihydrochloride]", "assayed_system": "A549 cells", "group_label": "NOT MET"}

Query: In the record for CC(=O)c1cnc2ccc(-c3cc(F)c(O)c(Cl)c3)nc2c1Nc1ccc(N2CCCC(N)C2)nc1 (stereo not shown) [Example 65, trihydrochloride] , is IC50 less than 0.3 µM?
Reply: MET

Query: A record lists CC(=O)c1cnc2ccc(-c3cc(Cl)c(O)c(Cl)c3)nc2c1Nc1cnc(N2CCC(N)C2)nc1 (stereo not shown) [Example 41, trihydrochloride] . Is its IC50 below 0.3 µM?
Reply: MET

Query: Please determine if CC(=O)c1cnc2ccc(-c3cc(F)c(O)c(Cl)c3)nc2c1N[C@H]1CC[C@H](N)CC1 [Example 67, dihydrochloride] is below 0.3 µM in terms of IC50.
Reply: MET
